- ASSAY TARGET: Integrase (Human immunodeficiency virus 1, UniProt Q7ZJM1)
- Sequence (Q7ZJM1 whole entry): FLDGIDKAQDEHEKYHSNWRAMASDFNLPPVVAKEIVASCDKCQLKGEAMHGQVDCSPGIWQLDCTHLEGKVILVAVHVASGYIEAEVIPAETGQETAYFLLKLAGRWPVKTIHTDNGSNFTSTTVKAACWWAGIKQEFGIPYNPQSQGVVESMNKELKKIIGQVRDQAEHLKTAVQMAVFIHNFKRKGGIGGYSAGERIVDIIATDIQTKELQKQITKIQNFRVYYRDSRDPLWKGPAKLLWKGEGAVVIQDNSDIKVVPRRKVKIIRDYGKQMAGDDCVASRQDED
- ASSAY REMARKS: Inhibition of 3'-processing activity of HIV1 integrase
Assign IC50 to each entry below.

// worked examples, IC50 included
>>> result("COc1ccc(C2C(C(=O)c3ccc(F)cc3)C(=O)C(=O)N2CCN(C)C)cc1OC (stereo unspecified)")
"> 1000 µM"
>>> result("O=C1C(=O)N(CCCN2CCOCC2)C(c2ccccc2F)C1C(=O)c1ccc(F)cc1 (stereo unspecified)")
"> 1000 µM"
>>> result("COc1ccc(C2C(C(=O)c3ccccc3)C(=O)C(=O)N2CCCO)cc1OC (stereo unspecified)")
"> 100 µM"
>>> result("CN(C)CCCN1C(=O)C(=O)C(C(=O)c2cccs2)C1c1cccs1 (stereo unspecified)")
"> 100 µM"
>>> result("NCCCCCCNC(=O)c1c(O)c2ccccc2oc1=O")
"> 100 µM"

Next molecule, IC50 to be filled in.
Can you look up IC50 on Integrase (Human immunodeficiency virus 1, UniProt Q7ZJM1) for Cc1ccc(C(=O)C2C(=O)C(=O)N(CCN(C)C)C2c2ccccc2F)cc1 (stereo unspecified) ? > 1000 µM
